Each recorded value in this set is attributed to PubChem BioAssay (NCI).

System: BT-549 breast
Test: NCI-60 one-dose screen, 48 h
Details: 10 µM unless noted
Compounds without any hit were thinned out: in the full panel of roughly 83,000, 20% have a hit. Active and inactive are the calls of the source. How the source made its calls: active means growth percent below 10; inactive means the rest.
Possible outcomes: y (active), n (inactive)

{"molecule": "COC(=O)[C@@H](C)C[C@H](Cc1ccc(F)cc1)NC(=O)c1csc([C@@H](C[C@H](C(C)C)N(C)C(=O)[C@@H](NC(=O)[C@H]2CCCCN2C)C2CC2)OC(C)=O)n1", "group_label": "y"}
{"molecule": "CN(C)C(=O)Oc1ccccc1-c1ccccc1", "group_label": "n"}
{"molecule": "CN(C)CC(C(=O)Cc1ccccc1)c1ccccc1 (stereo not drawn)", "group_label": "n"}
{"molecule": "Clc1cccc(NCOOC2(OOCNc3cccc(Cl)c3)CCCCCC2)c1", "group_label": "n"}
{"molecule": "CCOc1ccccc1C(=O)OCC(Cl)(Cl)Cl", "group_label": "n"}
{"molecule": "ClCCN(CCCl)Cc1ccc(Nc2ccnc3cc(Cl)ccc23)cc1", "group_label": "n"}
{"molecule": "CN1CCCCC1C(C)(O)c1ccccc1 (stereo not drawn)", "group_label": "n"}
{"molecule": "O=C1C(=Cc2cn(Cc3ccccc3)c3ccccc23)C(=O)N(Cc2ccccc2)C(=O)N1Cc1ccccc1", "group_label": "n"}
{"molecule": "CCn1c2ccccc2c2cc(C(=O)c3cccc4c3CCCN4)ccc21", "group_label": "n"}
{"molecule": "COC(=O)[C@H](Cc1c[nH]c2ccccc12)NC(=O)[C@@H](OC)[C@@H]1Cc2cc3cc(OC4CC(OC5CC(O)C(O)C(C)O5)C(O)C(C)O4)c(C)c(O)c3c(O)c2C(=O)[C@H]1OC1CC(OC2CC(OC3CC(C)(O)C(O)C(C)O3)C(O)C(C)O2)C(O)C(C)O1 (stereo partly drawn)", "group_label": "y"}
{"molecule": "CCCCCCCCC(CO)NCCc1ccccc1 (stereo not drawn)", "group_label": "n"}
{"molecule": "CN1CCC(O)(c2ccc(F)cc2)C(C(=O)c2ccc(F)cc2)C1 (stereo not drawn)", "group_label": "n"}
{"molecule": "COC(=O)[C@H](Cc1ccccc1)NC(=O)c1csc([C@@H](C[C@H](C(C)C)N(C)C(=O)[C@@H](NC(=O)[C@H]2CCCCN2C)C2CC2)OC(C)=O)n1", "group_label": "y"}
{"molecule": "Brc1ccc2c(c1)c(-c1nc(-c3c[nH]c4ncccc34)cs1)cn2CCN1CCOCC1", "group_label": "n"}
{"molecule": "C=COC(=O)CCN1CC1", "group_label": "n"}
{"molecule": "CCCCCCCCOC(=O)CCN1CC1", "group_label": "n"}
{"molecule": "CC(=O)O[C@H](C[C@H](C(C)C)N(C)C(=O)[C@@H](NC(=O)[C@H]1CCCCN1C)C(C)C)c1nc(C(=O)N[C@@H](Cc2ccccc2)C[C@H](C)C(=O)O)c(C)s1", "group_label": "y"}
{"molecule": "Cc1cc(N(CCCl)CCCl)ccc1/C=N\\NC(=O)c1ccncc1", "group_label": "n"}
{"molecule": "O=[N+]([O-])c1cc([N+](=O)[O-])c(Nn2c3ccccc3c3ccccc32)c([N+](=O)[O-])c1", "group_label": "y"}
{"molecule": "CCN(CC)CCOC(=O)C(OC(C)C)(c1ccccc1)c1ccccc1", "group_label": "n"}
{"molecule": "CCOC(=O)N[C@H]1CCc2c(Br)c(OC)c(OC)c(OC)c2-c2ccc(SC)c(=O)cc21", "group_label": "y"}
{"molecule": "CCCC[C@H](NC(=O)[C@H]1CCCN1C)C(=O)N(C)[C@H](C[C@@H](OC(C)=O)c1nc(C(=O)N[C@@H](Cc2ccccc2)C[C@H](C)C(=O)OCC)cs1)C(C)C", "group_label": "y"}
{"molecule": "COc1ccc(C(=O)c2cc(OC)c(OC)c(OC)c2)cc1OC(C)=O", "group_label": "y"}
